# Test system: SEM cells
# assay.info: AUC of viability dose-response curve (% viability x log10 dose units); higher = less sensitive
# condition: RPMI 5 mM glucose + 10% FBS; 48 h
AUC of viability dose-response curve vs 400: less than gives Yes; not less than gives No.

compound: CCC[C@@H]1C[C@@H](C(=O)N[C@@H]([C@H]2O[C@H](SC)[C@H](O)[C@@H](O)[C@H]2O)[C@@H](C)O)N(C)C1.Cl
group.label: No
--
compound: OCc1ccccc1O[C@@H]1O[C@H](CO)[C@@H](O)[C@H](O)[C@H]1O
group.label: Yes
--
compound: CC[C@H]1OC(=O)[C@H](C)[C@@H](O[C@H]2C[C@@](C)(OC)[C@@H](O)[C@H](C)O2)[C@H](C)[C@@H](O[C@@H]2O[C@@H](C)C[C@H](N(C)C)[C@H]2O)[C@](C)(O)C[C@@H](C)C(=O)[C@H](C)[C@@H](O)[C@]1(C)O
group.label: No
--
compound: CN(C)CCOC(c1ccccc1)c1ccccc1
group.label: No
--
compound: NC/1=N/C(=O)N/C=C1F
group.label: No
--
compound: O=C([O-])Cc1ccccc1Nc1c(Cl)cccc1Cl
group.label: No
--
compound: O=C(Nc1ccc(OC(F)(F)F)cc1)c1sccc1NCc1ccnc2ccccc12
group.label: Yes
--
compound: COC(=O)N1CCN(Cc2cccc(NC(=O)Nc3ccc(C)nc3)c2F)CC1
group.label: No
--
compound: C[C@H]([C@H](O)CCC(C)(C)O)[C@H]1CC[C@@]2(O)C/3=C/C(=O)[C@@H]4C[C@@H](O)[C@@H](O)C[C@]4(C)[C@H]3CC[C@]12C
group.label: No
--
compound: CN[C@H](CC(C)C)C(=O)N[C@H]1C(=O)N[C@@H](CC(N)=O)C(=O)N[C@H]2C(=O)N[C@H]3C(=O)N[C@H](C(=O)N[C@H](C(=O)O)c4cc(O)cc(O)c4-c4cc3ccc4O)[C@H](O)c3ccc(c(Cl)c3)Oc3cc2cc(c3O[C@@H]2O[C@H](CO)[C@@H](O)[C@H](O)[C@H]2O[C@H]2C[C@](C)(N)[C@H](O)[C@H](C)O2)Oc2ccc(cc2Cl)[C@H]1O
group.label: No
--
compound: CC1SC/2=C(C(O)=O)/C(=O)C3=CC(=C(C=C3N12)N4CCN(CC4)C\C5=C(C)\OC(=O)O5)F (stereo not given)
group.label: No
--
compound: C\C1=N\N=C(\C2=CC=C(N)C=C2)C3=CC4=C(OCO4)C=C3C1
group.label: No
--
compound: CNC(=O)c1ccccc1Nc1nc(Nc2ccc(N3CCOCC3)cc2OC)ncc1Cl
group.label: Yes

Reference source: the supplement of paper PMC11451515
